system: hexokinase; experiment: Substrate activity at hexokinase (unknown origin) assessed as compound phosphorylation after 1 days in presence of ATP by 31-P NMR spectroscopic analysis; format: ADME; details: human, hexokinase (isolated enzyme); read-out: Activity
attribute.measured: metabolised at 24 h (%)

OC[C@H]1OC(O)[C@H](O)[C@@H](O)[C@@H]1O (stereo partly specified): 97

###

assay: Drug uptake in human A549 cells at 30 uM after 7 to 24 hrs under normoxic condition by ICP-MS analysis; assay type: ADME, cell-based; conditions: a549, 30 µM
attribute.measured: Drug uptake

OC[C@H]1OC[C@H](B2OCCCO2)[C@@H](O)[C@@H]1O: Active
CC1CC(C)OB([C@H]2CO[C@H](CO)[C@@H](O)[C@@H]2O)O1 (some centres not stated): Active
c1ccc(B2OC3(CCCCC3)C3(CCCCC3)O2)c(CN2CCNCCNCCNCC2)c1: Active
CC1(C)OB([C@H]2CO[C@H](CO)[C@@H](O)[C@@H]2O)OC1(C)C: Active
OC[C@H]1OC[C@H](B2OC3(CCCCC3)C3(CCCCC3)O2)[C@@H](O)[C@@H]1O: Active
N[C@@H](Cc1ccc(B(O)O)cc1)C(=O)O: Active
OC[C@H]1OC[C@H](B(O)O)[C@@H](O)[C@@H]1O: Active

###

system: hexokinase; experiment: Substrate activity at hexokinase (unknown origin) assessed as compound phosphorylation after 5 days in presence of ATP by 31-P NMR spectroscopic analysis; assay type: ADME; conditions: human, hexokinase (isolated enzyme); read-out: Activity
attribute.measured: metabolised at 120 h (%)

O=P(O)(O)OC[C@H]1OC(O)[C@H](O)[C@@H](O)[C@@H]1O (stereo partly specified): 19
